Attribution: the supplement of paper PMC8728848

Catalogue of glycan array binding signal (z-score) readings, one per entry.
system_name: Neu5Ac(a2-6)Gal(b1-4)GlcNAc(b1-2)Man(a1-3)[Neu5Ac(a2-3)Gal(b1-4)GlcNAc(b1-2)Man(a1-6)]Man(b1-4)GlcNAc(b1-4)GlcNAc
experiment_description: glycan array binding signal (z-score within array); higher = stronger binding
reported_conditions: glycan notation: IUPAC condensed, linker removed
The entries come from a sample that favours the strongest signals as a whole.
Hey, just send me the number, nothing else.

Take a look at these entries with their results.
{"columns": ["binder", "recorded_metric", "observed_measurement"],
 "data": [
  ["Gal 1 (Mus musculus), P16045 (protein) MACGLVASNLNLKPGECLKVRGEVASDAKSFVLNLGKDSNNLCLHFNPRFNAHGDANTIVCNTKEDGTWGTEHREPAFPFQPGSITEVCITFDQADLTIKLPDGHEFKFPNRLNMEAINYMAADGDFKIKCVAFE", "glycan array binding signal (z-score)", -0.219],
  ["LysMD3 (Homo sapiens), Q7Z3D4 (protein) MAGRHQNRSFPLPGVQSSGQVHAFGNCSDSDILEEDAEVYELRSRGKEKVRRSTSRDRLDDIIVLTKDIQEGDTLNAIALQYCCTVADIKRVNNLISDQDFFALRSIKIPVKKFSSLTETLCPPKGRQTSRHSSVQYSSEQQEILPANDSLAYSDSAGSFLKEVDRDIEQIVKCTDNKRENLNEVVSALTAQQMRFEPDNKNTQRKDPYYGADWGIG", "glycan array binding signal (z-score)", -0.438],
  ["Jacalin (Artocarpus integrifolia) (protein) MAYSSLLSLSVLALLFSISSADTRKWFLANGINQNPIGIIEAAVGVSEDLLNLNGMEAKNDEQSGISQTVIVGPWGAKVSTSSNGKAFDDGAFTGIREINLSYNKETAIGDFQVVYDLNGSPYVGQNHKSFITGFTPVKISLDFPSEYIMEVSGYTGNVSGYVVVRSLTFKTNKKTYGPYGVTSGTPFNLPIENGLIVGFKGSIGYWLDYFSMYLSL", "glycan array binding signal (z-score)", -0.241]
]}

Which glycan array binding signal (z-score) is reported for this binder? BTL (Bryothamnion triquetrum) (protein) ADPICGSSGYSCTTPAILTPKSPGSFPSGYSKVIVTGVGGSYSVYIHRPDGFKVYKASEGGCASFGSYSGGGNSEVGKYGSGGTVVAVACK
-0.249

Query (binder): EULS2 M3 (Oryza sativa) (protein) MVYCRANPNYAMTARNGAVVLAPANPKDEYQHWIKDMRWSTSIKDEEGYPAFALVNKATGQAIKHSLGQSHPVRLVPYNPEVMDESVLWTESRDVGNGFRCIRMVNNIYLNFDAFHGDKYHGGVRDGTDIVLWKLCEGDSLRWKIQPYYILEQKLISEEDLNSAVDHHHHHH ; field requested: glycan array binding signal (z-score)
-0.391

glycan array binding signal (z-score) for Erv46-EDTA (Saccharomyces cerevisiae), P39727 (protein) MKFLVNVALVFMVVYISYIYAAAPEHHHHHHDYDIPTTENLYFQGAMDSVVTRPQLVVDRDRHAKLELNMDVTFPSMPCDLVNLDIMDDSGEMQLDILDAGFTMSRLNSEGRPVGDATELHVGGNGDGTAPVNNDPNYCGPCYGAKDQSQNENLAQEEKVCCQDCDAVRSAYLEAGWAFFDGKNIEQCEREGYVSKINEHLNEGCRIKGSAQINRIQGNLHFAPGKPYQNAYGHFHDTSLYDKTSNLNFNHIINHLSFGKPIQSHSKLLGNDKRHGGAVVATSPLDGRQVFPDRNTHFHQFSYFAKIVPTRYEYLDNVVIETAQFSATFHSRPLAGGRDKDHPNTLHVRGGIPGMFVFFEMSPLKVINKEQ ?
-0.318
